- Test system: FDC-P1, normal mouse myelogeous stem cells
- Conditions: 24 h
Reported Endpoint: Myelo
// return a plain number; no unit text

Would you please look over these solved cases?
COc1c(C)cc2c(c1O)[C@@H]1C3[C@@H]4SC[C@]5(NCCc6c5[nH]c5ccccc65)C(=O)COC[C@@H](c5c6c(c(C)c(OC(C)=O)c54)OCO6)N3[C@@H](O)[C@H](C2)N1C (some centres unmarked)	1.03E−07
COc1c(C)cc2c(c1O)[C@@H]1C3[C@@H]4SC[C@]5(C(=O)COC[C@@H](c6c7c(c(C)c(OC(C)=O)c64)OCO7)N3[C@@H](O)[C@H](C2)N1C)c1[nH]c2ccccc2c1CCN5C (some centres unmarked) [Compound 39]	4.10E−07

Supply reported Myelo belonging to this molecule: COc1c(C)cc2c(c1O)[C@@H]1C3[C@@H]4SC[C@]5(NC(C)Cc6c5[nH]c5ccc(O)cc65)C(=O)COC[C@@H](c5c6c(c(C)c(OC(C)=O)c54)OCO6)N3[C@@H](O)[C@H](C2)N1C (some centres unmarked) [Compound 38] 9.66E−11

Supply reported Myelo belonging to this molecule: COc1c(C)cc2c(c1O)[C@@H]1C3[C@@H]4SC[C@]5(C(=O)COC[C@@H](c6c7c(c(C)c(OC(C)=O)c64)OCO7)N3[C@@H](O)[C@H](C2)N1C)c1[nH]c2ccc(O)cc2c1CCN5C (some centres unmarked) 1.92E−08

Supply reported Myelo belonging to this molecule: C=COC(=O)Oc1c(OC)c(C)cc2c1[C@@H]1C3[C@@H]4SC[C@]5(NCCc6c5[nH]c5ccccc65)C(=O)COC[C@@H](c5c6c(c(C)c(OC(C)=O)c54)OCO6)N3[C@@H](O)[C@H](C2)N1C (some centres unmarked) 6.76E−08
